Target: human Nav1.8 (hNav1.8) ion channel (Homo sapiens)
Construct: expressed in transfected cells
Sequence (Q9Y5Y9 whole entry): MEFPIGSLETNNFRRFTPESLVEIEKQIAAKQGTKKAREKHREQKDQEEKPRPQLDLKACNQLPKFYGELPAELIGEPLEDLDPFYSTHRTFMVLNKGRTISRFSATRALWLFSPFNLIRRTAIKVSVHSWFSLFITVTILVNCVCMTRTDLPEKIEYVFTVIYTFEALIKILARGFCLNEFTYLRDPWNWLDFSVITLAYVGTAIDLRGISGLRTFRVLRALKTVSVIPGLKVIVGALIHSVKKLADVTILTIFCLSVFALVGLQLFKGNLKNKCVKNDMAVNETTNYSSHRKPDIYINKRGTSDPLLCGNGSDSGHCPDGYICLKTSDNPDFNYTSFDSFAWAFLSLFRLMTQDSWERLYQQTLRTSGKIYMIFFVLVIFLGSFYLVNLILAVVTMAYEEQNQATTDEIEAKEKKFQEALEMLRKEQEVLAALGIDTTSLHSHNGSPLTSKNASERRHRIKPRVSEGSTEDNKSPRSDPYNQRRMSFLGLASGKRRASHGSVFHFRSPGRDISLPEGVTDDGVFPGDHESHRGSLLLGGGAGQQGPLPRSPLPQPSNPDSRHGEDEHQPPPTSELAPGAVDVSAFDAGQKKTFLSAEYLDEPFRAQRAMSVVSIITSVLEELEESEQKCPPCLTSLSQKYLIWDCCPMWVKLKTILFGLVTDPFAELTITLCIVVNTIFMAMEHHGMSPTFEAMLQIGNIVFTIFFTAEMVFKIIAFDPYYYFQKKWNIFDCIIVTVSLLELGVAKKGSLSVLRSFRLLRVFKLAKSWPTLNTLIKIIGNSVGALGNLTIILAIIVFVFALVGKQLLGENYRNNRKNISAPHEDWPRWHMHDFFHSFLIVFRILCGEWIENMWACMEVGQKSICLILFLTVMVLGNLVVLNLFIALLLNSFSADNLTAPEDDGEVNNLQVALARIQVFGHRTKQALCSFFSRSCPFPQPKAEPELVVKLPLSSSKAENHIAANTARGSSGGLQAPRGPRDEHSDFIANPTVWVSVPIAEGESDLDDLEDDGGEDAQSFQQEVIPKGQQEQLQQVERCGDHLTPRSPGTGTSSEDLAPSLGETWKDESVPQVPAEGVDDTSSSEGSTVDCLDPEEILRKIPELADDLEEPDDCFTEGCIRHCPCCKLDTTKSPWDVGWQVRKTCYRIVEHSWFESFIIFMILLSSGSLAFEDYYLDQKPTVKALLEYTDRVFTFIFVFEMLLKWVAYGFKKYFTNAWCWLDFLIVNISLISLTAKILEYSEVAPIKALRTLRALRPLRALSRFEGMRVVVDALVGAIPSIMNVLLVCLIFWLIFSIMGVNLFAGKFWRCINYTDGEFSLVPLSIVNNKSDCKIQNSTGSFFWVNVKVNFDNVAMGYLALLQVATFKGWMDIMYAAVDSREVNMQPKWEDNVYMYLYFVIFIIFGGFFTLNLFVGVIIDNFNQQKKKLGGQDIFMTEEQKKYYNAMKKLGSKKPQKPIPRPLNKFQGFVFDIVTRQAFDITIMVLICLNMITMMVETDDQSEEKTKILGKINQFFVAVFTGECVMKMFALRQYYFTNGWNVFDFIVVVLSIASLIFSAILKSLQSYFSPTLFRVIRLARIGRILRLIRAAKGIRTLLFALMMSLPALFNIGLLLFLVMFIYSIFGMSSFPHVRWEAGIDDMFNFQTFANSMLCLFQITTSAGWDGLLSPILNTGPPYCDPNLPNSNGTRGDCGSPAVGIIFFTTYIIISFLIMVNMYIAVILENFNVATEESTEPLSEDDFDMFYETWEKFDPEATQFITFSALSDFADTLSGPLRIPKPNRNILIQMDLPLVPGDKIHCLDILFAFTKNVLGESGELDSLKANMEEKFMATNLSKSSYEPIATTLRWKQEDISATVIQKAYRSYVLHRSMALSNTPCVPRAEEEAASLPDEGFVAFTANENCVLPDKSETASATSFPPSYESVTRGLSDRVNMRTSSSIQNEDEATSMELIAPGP
Assay: Inhibition of human Nav1.8 stably expressed in SH-SY-5Y cells (membrane potential dye fluorescence assay)
Assay type: cell-based
Conditions: SH-SY-5Y hNav1.8 cells; FLIPR membrane potential dye; 10 μM pyrethroid, 250 nM TTX; test concentration range 100 μM-0.05 μM; read-out: hNav1.8 IC50
pIC50: −log10 of the molar value.
Label class 1 when pIC50 >= 6; otherwise class 0.

COMPOUND	CAT
O=C(Nc1ccc(Cc2ccccc2)cc1)N1CC2CC1CN2C1Cc2ccc(F)cc2C1 (centres unmarked)	class 1
O=C(Nc1ccc(Oc2ccc(F)cc2)cc1)N1CC2CC1CN2C1CCc2cc(F)ccc21 (centres unmarked) [Example 93]	class 1
O=C(Nc1ccc(C(F)(F)F)cc1)N1CC2CC1CN2C1CCc2cc(F)ccc21 (centres unmarked) [Example 94]	class 0
O=C(Nc1ccc(Oc2ccc(F)cc2)cc1)N1CC2CC1CN2C1Cc2ccc(F)cc2C1 (centres unmarked)	class 1
Cc1ccccc1CC(C)N1CC2CC1CN2C(=O)Nc1ccc(Oc2ccccc2)cc1 (centres unmarked)	class 1
